- Assay protocol: Pharmacokinetics of migalastat HCl in a Fabry patient with severe renal impairment (P3, 2004-5029; Example 6)
- Format: in vivo, human
- Conditions: human, plasma, Plasma Migalastat Conc, Fabry patient P3, Mar ′11, 0 h
- Protocol: Migalastat levels can be measured via methods known in the art. […] Microcentrifuge tubes containing 100 μl of the tissue homogenate or 50 μl of plasma may then be spiked with 500 ng/mL 13C d2-AT1001 HCl internal standard (manufactured by MDS Pharma Services). A 600 μl volume of 5 mM HCl in 95/5 MeOH:H2O can then be added and the tubes vortexed for 2 minutes, followed by centrifugation at 21000×g for 10 minutes at room temperature. […]
Readout kind: concentration at 0 h (ng/mL)

cpd_smiles=OC[C@H]1NC[C@H](O)[C@@H](O)[C@H]1O assay_result=38.1
